Values were extracted from paper PMC5540273.

- System: HIPK4;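 note: KINOMEscan kinase panel screen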
- testSettings: concentration: 1 μM, replicates: in singlicate; n = 1
measure: %Inh (%)
Report the figure in % without appending any unit label.

For the molecule shown here, Cc1cccc(-c2nc(-c3ccc(S(C)(=O)=O)cc3)sc2-c2ccnc(NCCc3ccccc3)c2)c1 , give the reported %Inh. 8

For the molecule shown here, Fc1cccc(COc2nnc(-c3ccc4c(c3)CCO4)o2)c1 , give the reported %Inh. 3

For the molecule shown here, Cc1ccc(-c2cc(-c3c[nH]nc3-c3ccccn3)ccn2)cc1 , give the reported %Inh. 0

For the molecule shown here, Cc1ccc(C(=O)Nc2ccc(Nc3ccnc4cc(-c5ccccn5)ccc34)cc2O)cc1.Cl , give the reported %Inh. 0

For the molecule shown here, CCCc1ccc(S(=O)(=O)NC2CCN(c3ccnc(Nc4ccc(F)cc4)n3)C2)cc1 (centres unmarked) , give the reported %Inh. 0

For the molecule shown here, O=C(Nc1n[nH]c2nc(-c3nccs3)c(Br)cc12)C1CCCC1 , give the reported %Inh. 8

For the molecule shown here, Cl.O=C(Nc1cccc(-c2nn3ncccc3c2-c2ccnc(Nc3cccnc3)n2)c1)c1c(F)cccc1F , give the reported %Inh. 0

For the molecule shown here, CS(=O)(=O)c1ccc(-c2nc3n(c2-c2ccncc2)CCC3)cc1 , give the reported %Inh. 0

For the molecule shown here, O=c1cc(N2CCOCC2)nc2n(Cc3cccc(Cl)c3Cl)ccn12 , give the reported %Inh. 28

For the molecule shown here, CC(=O)Nc1nc2cnc(Nc3cc(NC(=O)c4cccc(CCC#N)c4)ccc3C)nc2s1 , give the reported %Inh. 5

For the molecule shown here, O=C(O)COc1ncnc2cc(-c3ccc4[nH]ncc4c3)sc12 , give the reported %Inh. 38

For the molecule shown here, CCn1c(-c2cccnc2O)nc2cnccc21 , give the reported %Inh. 0

For the molecule shown here, CC(C)(C)c1ccc(C(=O)Nc2cn3cc(Cl)ccc3n2)cc1 , give the reported %Inh. 0

For the molecule shown here, Nc1nc(-c2nccs2)c(-c2ccnc3ccccc23)s1 , give the reported %Inh. 0

For the molecule shown here, Cc1c(Cn2ccn3c(=O)cc(N4CCOCC4)nc23)cccc1C(F)(F)F , give the reported %Inh. 0

For the molecule shown here, Cc1cc(N2Cc3ccccc3C2)nc(Nc2ccc(S(=O)(=O)N3CCOCC3)cc2)n1.Cl , give the reported %Inh. 0

For the molecule shown here, Cl.Oc1ccc(-c2nc(-c3ccccc3)[nH]c2-c2ccncc2)cc1 , give the reported %Inh. 0

For the molecule shown here, Cc1c(O)cccc1Nc1ccnc2ccc(C(F)(F)F)cc12.Cl , give the reported %Inh. 0

For the molecule shown here, CC(C)(C)c1ccc(C(=O)Nc2cn3cc(-c4cccnc4)ccc3n2)cc1 , give the reported %Inh. 15

For the molecule shown here, COc1cc2nccc(Nc3ccc(NC(=O)c4ccc(C)cc4)c(O)c3)c2cc1OC.Cl , give the reported %Inh. 3

For the molecule shown here, CN1C(=O)C(Nc2ccc(Cl)c(C(=O)O)c2)=C(c2ccc(Cl)cc2)C1=O , give the reported %Inh. 11

For the molecule shown here, Cc1cccc(-c2nc(C)cc(Nc3ccncc3)n2)n1 , give the reported %Inh. 0

For the molecule shown here, Cn1cncc1-c1ccc2ncnc(Nc3ccc(OCc4ccccc4)cc3)c2c1 , give the reported %Inh. 13

For the molecule shown here, O=C(Nc1ccccc1)Nc1cccc(Oc2ccc3nccn3n2)c1 , give the reported %Inh. 9

For the molecule shown here, COc1ccc(C2=C(Nc3cccc(C(=O)O)c3)C(=O)NC2=O)cc1 , give the reported %Inh. 21

For the molecule shown here, O=S(=O)(c1ccc(-c2ccnc3[nH]ccc23)cc1)N1CCCC1 , give the reported %Inh. 23

For the molecule shown here, Cc1cccc(-c2nc(Nc3ccncc3)c3ccccc3n2)n1 , give the reported %Inh. 19

For the molecule shown here, Cc1cc(NCC(c2ccccc2)c2ccccc2)nc(NCc2ccc(C(F)(F)F)cc2)n1 , give the reported %Inh. 0

For the molecule shown here, Cl.NC(=O)c1cccc(Nc2nccc(Nc3ccc(Oc4cccc(Cl)c4)c(Cl)c3)n2)c1 , give the reported %Inh. 0
